# System: 885724-159-R-J1-PDC complex spheroid viability;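 further: spheroids exposed to agents for seven days before readout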
# method: Anticancer human tumor 885724-159-R-J1-PDC patient-derived pancreatic adenocarcinoma cell line growth inhibition [GQUAD]; active means viability on the fitted dose curve at most 10% of control; inactive means the rest
# studyConditions: second compound 10 µM; first compound 10 µM
Output constraint: value belongs to Yes for active, No for inactive

Some solved entries appear below for comparison.
{"columns": ["molecule", "cat"],
 "data": [
  ["O=c1[nH]cc(F)c(=O)[nH]1 + CN(C)c1ccc(Nc2c3ccc(NC(=O)CCN4CCCC4)cc3nc3cc(NC(=O)CCN4CCCC4)ccc23)cc1", "No"],
  ["CC1COCCN1c1cc(C2(S(C)(=N)=O)CC2)nc(-c2ccnc3[nH]ccc23)n1 (stereo unspecified) + Cc1[nH]c2ccc(F)cc2c1-c1nc2c3cccnc3c3ncccc3c2[nH]1", "No"],
  ["CC(C)n1c(=O)n(C)c2cnc3cc(F)c(-c4ccc(OCCCN5CCCCC5)nc4)cc3c21 + Cc1cnc(CNC(=O)c2c(=O)c3ccc(N4CCCN(C)CC4)nc3n3c2sc2ccccc23)cn1", "No"]
]}

Query: Record lookup: outcome of this test for C=CC(=O)N1CCN(c2nc(=O)n(-c3c(C)ccnc3C(C)C)c3nc(-c4c(O)cccc4F)c(F)cc23)C(C)C1 (stereo unspecified) + CN(C)c1ccc(Nc2c3ccc(NC(=O)CCN4CCCC4)cc3nc3cc(NC(=O)CCN4CCCC4)ccc23)cc1 ?
Reply: No

Query: In this assay, the call recorded for C=CC(=O)N1CCN(c2nc(=O)n(-c3c(C)ccnc3C(C)C)c3nc(-c4c(O)cccc4F)c(F)cc23)C(C)C1 (stereo unspecified) + Cc1cnc(CNC(=O)c2c(=O)c3ccc(N4CCCN(C)CC4)nc3n3c2sc2ccccc23)cn1 was what?
Reply: No

Query: Record request — test call for C=CCn1c(=O)c2cnc(Nc3ccc(N4CCN(C)CC4)cc3)nc2n1-c1cccc(C(C)(C)O)n1 + Cc1cnc(CNC(=O)c2c(=O)c3ccc(N4CCCN(C)CC4)nc3n3c2sc2ccccc23)cn1
Reply: No

Query: Write down the call the test reported for this molecule. Item: COc1cc(C2c3cc4c(cc3C(OC3OC5COC(C)OC5C(O)C3O)C3COC(=O)C23)OCO4)cc(OC)c1O (stereo unspecified) + Cc1cnc(CNC(=O)c2c(=O)c3ccc(N4CCCN(C)CC4)nc3n3c2sc2ccccc23)cn1
Reply: No

Query: What classification did COc1ccc([C@@H](O)c2cc(-c3ncnc4cc(N5CCOCC5)ccc34)c(F)cc2Cl)nn1 + CN(C)c1ccc(Nc2c3ccc(NC(=O)CCN4CCCC4)cc3nc3cc(NC(=O)CCN4CCCC4)ccc23)cc1 end up with in this test?
Reply: No

Query: Record lookup: outcome of this test for COc1ccc([C@@H](O)c2cc(-c3ncnc4cc(N5CCOCC5)ccc34)c(F)cc2Cl)nn1 + Cc1[nH]c2ccc(F)cc2c1-c1nc2c3cccnc3c3ncccc3c2[nH]1 ?
Reply: No

Query: Outcome logged for C=CC(=O)N1CCN(c2nc(=O)n(-c3c(C)ccnc3C(C)C)c3nc(-c4c(O)cccc4F)c(F)cc23)C(C)C1 (stereo unspecified) + Cc1[nH]c2ccc(F)cc2c1-c1nc2c3cccnc3c3ncccc3c2[nH]1 in this assay:
Reply: No

Query: Write down the call the test reported for this molecule. Item: Cc1cccc(N(C)C(=O)C2C(O)CCN2c2nc(C)cc(C(F)(F)F)c2C#N)c1 (stereo unspecified) + Cc1[nH]c2ccc(F)cc2c1-c1nc2c3cccnc3c3ncccc3c2[nH]1
Reply: No

Query: Please indicate how the test categorized O=C(c1cc(Cc2n[nH]c(=O)c3ccccc23)ccc1F)N1CCN(C(=O)C2CC2)CC1 + Cc1cnc(CNC(=O)c2c(=O)c3ccc(N4CCCN(C)CC4)nc3n3c2sc2ccccc23)cn1 .
Reply: No
